# systemName: Human CD137 ECD (human)
# Sequence (chain, as listed by the source limits assumed): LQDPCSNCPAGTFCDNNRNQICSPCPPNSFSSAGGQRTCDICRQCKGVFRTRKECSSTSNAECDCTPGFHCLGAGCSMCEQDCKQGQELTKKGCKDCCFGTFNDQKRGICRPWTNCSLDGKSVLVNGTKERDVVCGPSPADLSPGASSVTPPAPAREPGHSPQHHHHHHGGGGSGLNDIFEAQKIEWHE
# protocolDetails: SPR, vs parent H183/L072
endpoint: fold change of affinity (fold)
# unit: fold | format: bare number

Worked examples follow.
binder	fold change of affinity [fold]
dBBDu183H Y94R / dBBDu072L (antibody, name in Kabat numbering, V domains shown) VH: QVQLVESGGGLVQPGRSLRLSCAASGFTFSNAWMHWVRQAPGKGLEWVAQIKDKGNAYAAYYAPSVKGRFTISRDDSKNSIYLQMNSLKTEDTAVYYCHRVHYASASTVLPAFGVDAWGQGTTVTVSS VL: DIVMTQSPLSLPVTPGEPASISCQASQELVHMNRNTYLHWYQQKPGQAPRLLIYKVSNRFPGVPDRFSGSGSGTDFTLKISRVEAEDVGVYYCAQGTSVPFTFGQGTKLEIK	0
dBBDu183H S100aK / dBBDu072L (antibody, name in Kabat numbering, V domains shown) VH: QVQLVESGGGLVQPGRSLRLSCAASGFTFSNAWMHWVRQAPGKGLEWVAQIKDKGNAYAAYYAPSVKGRFTISRDDSKNSIYLQMNSLKTEDTAVYYCHYVHYASAKTVLPAFGVDAWGQGTTVTVSS VL: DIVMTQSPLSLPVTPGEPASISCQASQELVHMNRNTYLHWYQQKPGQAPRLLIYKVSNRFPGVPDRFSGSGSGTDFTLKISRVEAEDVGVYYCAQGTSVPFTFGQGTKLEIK	0

With those in mind, consider the next binder.
Recorded fold change of affinity (binder dBBDu183H V95F / dBBDu072L (antibody, name in Kabat numbering, V domains shown) VH: QVQLVESGGGLVQPGRSLRLSCAASGFTFSNAWMHWVRQAPGKGLEWVAQIKDKGNAYAAYYAPSVKGRFTISRDDSKNSIYLQMNSLKTEDTAVYYCHYFHYASASTVLPAFGVDAWGQGTTVTVSS VL: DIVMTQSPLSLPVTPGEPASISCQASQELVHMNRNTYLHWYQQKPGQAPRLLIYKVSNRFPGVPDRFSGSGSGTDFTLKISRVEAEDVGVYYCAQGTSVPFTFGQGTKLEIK ): 0

Origin of the recorded values: patent US20210388087A1
